FYI, the data here is from patent US20230090156A1.

Subject Of Test: T1, human cANGPTL4 (C-terminal fragment of Angiopoietin-like 4 protein) (human, UniProt Q9BY76 186-406, limits assumed)
T1 construct: domain: C-terminal fragment (cANGPTL4); Purified cANGPTL4 was immobilised by amine coupling on the CM5 chip for SPR and on carboxylated microwell plates for ELISA; also called purified cANGPTL4; human cANGPTL4 antigen
T1 sequence (looked up): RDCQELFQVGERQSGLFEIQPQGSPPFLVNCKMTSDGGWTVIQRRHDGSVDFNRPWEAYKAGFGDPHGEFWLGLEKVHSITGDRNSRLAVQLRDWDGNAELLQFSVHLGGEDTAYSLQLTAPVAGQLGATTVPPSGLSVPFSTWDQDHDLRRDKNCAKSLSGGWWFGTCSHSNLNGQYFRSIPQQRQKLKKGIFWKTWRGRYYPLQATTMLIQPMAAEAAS
Assay Notes: SPR (BIACORE 3000), cANGPTL4 amine-coupled to CM5 chip, antibody as analyte
Description: Surface Plasmon Resonance (SPR): Sensor CM5 chips and amine coupling kits were from GE Healthcare. Purified cANGPTL4 was immobilized onto a CM5-carboxylated dextran sensor chip by amine coupling using the Surface Prep Module of BIACORE 3000 as recommended by the manufacturer (BIAcore). […]
Measurement Kind: Kd (nM)
One number for each entry, in nM.

Before answering, review these 2 worked examples.
Binder | Kd [nM]
Antuzumab 1 (antibody, V domains shown, Humanized monoclonal antibody made in CHO cells; also called ANG49; ANGH3 + ANGK3) VH: QVTLKESGPTLVKPTQTLTLTCTFSGFSLSTSGMGVGWIRQPPGKALEWLAHIWWDDDKYYNPSLKSRLTISKDTSKNQVVLTMTNMDPVDTATYYCARKDYGSSYDYWGQGTTVTVSS VL: DIVMTQSPLSLPVTPGEPASISCKASQSVDYDGDSYLNWYLQKPGQSPRLLIYTASNLESGVPDRFSGSGSGTDFTLKISRVEAEDVGVYYCFQSNEDPWTFGQGTKLEIK | 1.05
Antuzumab 2 (antibody, V domains shown, Humanized monoclonal antibody made in CHO cells; also called ANG50; ANGH4 + ANGK4) VH: QITLKESGPTLVKPTQTLTLTCTFSGFSLSTSGMGVGWIRQPPGKALEWLAHIWWDDDKYYNPSLKSRLTITKDTSKNQVDLTMTFMDPWDTATYYCAHKDYGSSYDYWGQGTLVTVSS VL: DIQMTQSPSSLSASVGDRVTITCKASQSVDYDGDSYLNWYQQKPGKAPNLLIYTASNLESGVPSRFSGSGSGTDFTLTISSLQPEDFATYYCQQSNEDPWTFGEGTKVEIK | 1.54

# batch: return Kd for each of the 2 binders below
1. Antuzumab 3 (antibody, V domains shown, Humanized monoclonal antibody made in CHO cells; also called ANG27; ANGH1 + ANGK1) VH: QITLKESGPTLVKPTQTLTLTCTFSGFSLSTSGMGVGWIRQPPGKALEWLAHIWWDDDKYYNPSLKSRLTITKDTSKNQVVLTMTNMDPVDTATYYCARKDYGSSYDYWGQGTLVTVSS VL: DIVMTQSPDSLAVSLGERATINCKASQSVDYDGDSYLNWYQQKPGQPPKLLIYTASNLESGVPDRFSGSGSGTDFTLTISSLQAEDVAVYYCQQSNEDPWTFGQGTKVEIK
2. murine monoclonal antibody mAb11F6C4 (antibody, V domains shown, Murine monoclonal antibody, the parent of the humanized antibodies; also called Control 11F6C4; original mouse-derived mAb) VH: QITLKESGPGILKPSQTLSLTCSFSGFSLSTSGMGVGWIRQPSGKGLEWLAHIWWDDDKYYNPSLKSQLTISKDTSRNQVFLKITSVDTADTATYYCARKDYGSSYDYWGQGTTLTVSS VL: DIVLTQSPASLAVSLGQRATISCKASQSVDYDGDSYLNWFQQKPGQPPKLLIYTASNLESGIPARFSGSGSGTDFTLNIHPVEEEDAATYYCQQSNEDPWTFGGGTTLEIK

4.47
8.28
